Test: Dye content of TMB solution, A (285 nm): amount of unrestricted benzidine rings in solution
Type: physicochemical
Conditions: Example 1: additive at 0.5M in TMB solution (3 mM TMB, 0.5% DMSO, 1.25 mM hydroxypropyl beta-cyclodextrin, 0.01% H2O2, pH 3.5); TMBW as supplied; 20 μL in 980 μL water
Please mark satisfied if the recorded Dye (A285) is equal to or greater than 1, and not satisfied if it falls below.

Here's what some known entries look like.
- C[N+](C)(C)CCO.[Cl-] [Choline Chloride, choline chloride]: satisfied
- O=S(=O)([O-])CCC[n+]1ccccc1 [3-(1-Pyridinio)-1-propanesulfonate, 3-(1-pyridinio)-1-propanesulfonate]: satisfied
- NCC(=O)O: not satisfied
- C[N+](C)(C)C[C@H](O)CC(=O)[O-] (racemic): not satisfied

Attention now turns to another entry.
Quick check: does `CNCC(=O)O` have Dye (A285) greater than or equal to 1?
not satisfied

Reference for the values: patent US9588123B2
